Target: full length GAK protein N-terminally fused with NanoLuc luciferase (Homo sapiens)
Sequence (O14976 2-1311): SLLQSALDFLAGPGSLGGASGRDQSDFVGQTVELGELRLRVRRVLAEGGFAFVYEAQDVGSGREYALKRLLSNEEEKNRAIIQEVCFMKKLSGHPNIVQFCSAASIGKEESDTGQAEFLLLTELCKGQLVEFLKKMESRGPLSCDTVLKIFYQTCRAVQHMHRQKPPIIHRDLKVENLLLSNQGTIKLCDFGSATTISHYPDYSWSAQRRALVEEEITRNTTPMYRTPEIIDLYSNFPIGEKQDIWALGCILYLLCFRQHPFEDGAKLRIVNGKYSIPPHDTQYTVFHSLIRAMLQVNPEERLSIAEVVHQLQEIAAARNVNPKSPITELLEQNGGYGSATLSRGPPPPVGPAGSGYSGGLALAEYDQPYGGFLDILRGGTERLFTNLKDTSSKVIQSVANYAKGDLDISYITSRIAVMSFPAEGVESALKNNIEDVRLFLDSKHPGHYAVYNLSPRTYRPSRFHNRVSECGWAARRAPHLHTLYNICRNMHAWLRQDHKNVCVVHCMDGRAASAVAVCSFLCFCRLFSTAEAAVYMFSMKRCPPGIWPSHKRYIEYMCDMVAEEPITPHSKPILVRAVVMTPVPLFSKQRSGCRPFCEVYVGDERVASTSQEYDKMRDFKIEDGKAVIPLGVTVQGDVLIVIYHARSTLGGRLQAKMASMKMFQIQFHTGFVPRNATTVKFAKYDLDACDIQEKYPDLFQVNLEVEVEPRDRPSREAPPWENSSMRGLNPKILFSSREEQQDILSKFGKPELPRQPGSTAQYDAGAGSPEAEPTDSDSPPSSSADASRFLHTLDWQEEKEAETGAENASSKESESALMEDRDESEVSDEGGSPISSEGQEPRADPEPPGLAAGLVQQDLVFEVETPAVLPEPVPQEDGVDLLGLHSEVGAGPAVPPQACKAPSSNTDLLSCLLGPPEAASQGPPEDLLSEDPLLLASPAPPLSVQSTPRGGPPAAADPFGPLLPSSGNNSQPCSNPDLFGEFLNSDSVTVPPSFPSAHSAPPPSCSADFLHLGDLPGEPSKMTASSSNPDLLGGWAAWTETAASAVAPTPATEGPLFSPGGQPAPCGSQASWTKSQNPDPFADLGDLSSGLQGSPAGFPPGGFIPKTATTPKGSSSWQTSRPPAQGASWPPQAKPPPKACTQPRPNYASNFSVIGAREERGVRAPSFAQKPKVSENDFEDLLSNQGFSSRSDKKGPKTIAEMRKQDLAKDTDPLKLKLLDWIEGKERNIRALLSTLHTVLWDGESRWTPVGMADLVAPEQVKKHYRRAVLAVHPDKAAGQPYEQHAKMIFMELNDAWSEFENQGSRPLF
Assay: cell-based
Parameters: species or system HEK293T
measurement.name: IC50 (µM)

1) C#Cc1cccc(Nc2ncnc3ccc(OC)cc23)c1 : 2.9
2) C#Cc1cccc(Nc2ncnc3cc(F)ccc23)c1 : 4.1
3) C#Cc1cccc(Nc2ncnc3ccc(C)cc23)c1 : 3.6

(I) C#Cc1cccc(Nc2ncnc3cc(OC)c(OC)cc23)c1
(II) C#Cc1cccc(Nc2ncnc3cc4c(cc23)OCCO4)c1
Req: Smaller IC50 value, I vs II ? State your choice using its label.
Resp: I

====

Molecular target: full length GAK protein N-terminally fused with NanoLuc luciferase (Homo sapiens)
Experiment: nanoBRET cellular target engagement
Type: cell-based
pIC50: −log10 of the molar value.
measurement.name: pIC50

1. CCOc1cc2ncc(C#N)c(Nc3ccc(OCc4ccccn4)c(Cl)c3)c2cc1NC(=O)/C=C/CN(C)C : 5.64
2. COc1cc(Nc2ccnc3ccccc23)cc(OC)c1OC : 6.14
3. COc1cc(Nc2ccnc3ccc(I)cc23)cc(OC)c1OC : 6.96
4. COc1cc2ncnc(Nc3ccc(F)c(Cl)c3)c2cc1NC(=O)/C=C/CN1CCCCC1 : 7.31
5. COc1ccc2nccc(Nc3cc(OC)c(OC)c(OC)c3)c2c1 : 6.44
6. COc1cc(Nc2ccnc3cc(F)c(F)cc23)cc(OC)c1OC : 6.85
7. COc1cc(Nc2ccnc3cc(C#N)ccc23)cc(OC)c1OC : 6.46
8. COc1cc(Nc2ccnc3cc(Cl)ccc23)cc(OC)c1OC : 6.60

(I) CCOc1cc2ncc(C#N)c(Nc3ccc(F)c(Cl)c3)c2cc1NC(=O)/C=C/CN(C)C
(II) COc1cc(Nc2ccnc3ccc(C#N)cc23)cc(OC)c1OC
(III) COc1cc(Nc2ccnc3ccc(Cl)cc23)cc(OC)c1OC
(IV) COc1cc(Nc2ccnc3cc(I)ccc23)cc(OC)c1OC
(V) COc1cc2nccc(Nc3cc(OC)c(OC)c(OC)c3)c2cc1OC
Req: Please list the entries, largest pIC50 first. Response format: the labels, sorted as the prompt asks.
Resp: I, V, IV, III, II
(I: 7.92, V: 7.59, IV: 7.13, III: 6.68, II: 6.44)
